Overview of reported self-aminoacylation across a group of sequences:
- System: biotinyl-Trp-oxazolone
- procedure text: self-aminoacylation, catalytic enhancement (BWO) (fold over background); higher = more active; k-Seq, kA / k0A0; sequences stand for … in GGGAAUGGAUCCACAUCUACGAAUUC…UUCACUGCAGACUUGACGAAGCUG
Fewer inactive variants are shown than the library holds.

AUUCACCUAAGGCAUCGGGUG [Fam2.2 aminoacylation ribozyme variant] | 3.67
CAACUUCUAACAAUCGGUCUG [Fam1A.1 aminoacylation ribozyme variant] | 1.05
AUUACCCUGGUCAGCGAGAGA [Fam2.1 aminoacylation ribozyme variant] | 1.54
CCACACUUCAAGCAAACGGUC [Fam1B.1 aminoacylation ribozyme variant] | 0.599
AAGUUUGCGACUAGUCGCAAG [Fam3.1 aminoacylation ribozyme variant] | 1.67

Data request: GET /values?readout=self-aminoacylation&system=biotinyl-Trp-oxazolone&item= GUACUUCAGACAAUCGGUCUG [Fam1A.1 aminoacylation ribozyme variant]
Data returned: 1.56

Data request: GET /values?readout=self-aminoacylation&system=biotinyl-Trp-oxazolone&item= AUUCCCAUAGGUCAUCGGGUG [Fam2.2 aminoacylation ribozyme variant]
Data returned: 22

Data request: GET /values?readout=self-aminoacylation&system=biotinyl-Trp-oxazolone&item= GUUCACCUCGGUCAUCGGGUG [Fam2.2 aminoacylation ribozyme variant]
Data returned: 3.77

Data request: GET /values?readout=self-aminoacylation&system=biotinyl-Trp-oxazolone&item= CUGCUUCAAACAAUCGGCCUG [Fam1A.1 aminoacylation ribozyme variant]
Data returned: 162
